target: human NAMPT (Homo sapiens, UniProt P43490); experiment: Inhibition of ATP-coupled NMN synthesis; type: biochemical; settings: read-out: Ki versus PRPP, 2.5 mM ATP
Sequence (P43490 whole entry): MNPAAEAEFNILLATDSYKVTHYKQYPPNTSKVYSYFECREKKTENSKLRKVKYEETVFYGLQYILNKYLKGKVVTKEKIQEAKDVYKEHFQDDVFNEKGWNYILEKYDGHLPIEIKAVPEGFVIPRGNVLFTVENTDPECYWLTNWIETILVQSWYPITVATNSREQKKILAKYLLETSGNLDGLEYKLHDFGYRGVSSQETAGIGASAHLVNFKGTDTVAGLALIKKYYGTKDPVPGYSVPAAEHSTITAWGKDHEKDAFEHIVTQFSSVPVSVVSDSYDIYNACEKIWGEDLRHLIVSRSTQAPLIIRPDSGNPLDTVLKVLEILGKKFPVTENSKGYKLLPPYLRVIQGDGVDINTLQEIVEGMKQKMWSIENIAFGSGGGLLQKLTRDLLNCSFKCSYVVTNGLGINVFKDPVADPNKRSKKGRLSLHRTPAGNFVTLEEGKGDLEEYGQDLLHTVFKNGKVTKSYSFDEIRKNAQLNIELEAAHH
MEASUREMENT LABEL: Ki

Query string: Fill in: Ki of NC(=O)C1=CN([C@@H]2O[C@H](COP(=O)(O)OP(=O)(O)OC[C@H]3O[C@@H](n4cnc5c(N)ncnc54)[C@H](O)[C@@H]3O)[C@@H](O)[C@H]2O)C=CC1 [NADH] is ___
Result string: 220 nM

====

target: human NAMPT (Homo sapiens); assay: Inhibition of ATP-coupled NMN synthesis; format: biochemical; settings: read-out: Ki versus NAM, 2.5 mM ATP
MEASUREMENT LABEL: Ki
I'd appreciate it if you wrote the number followed by its unit.

Query string: // Ki lookup, key: NC(=O)C1=CN([C@@H]2O[C@H](COP(=O)(O)OP(=O)(O)OC[C@H]3O[C@@H](n4cnc5c(N)ncnc54)[C@H](O)[C@@H]3O)[C@@H](O)[C@H]2O)C=CC1 [NADH]
Result string: 3.2 µM

====

molecular target: human NAMPT (Homo sapiens); assay: Inhibition of non ATP-coupled NMN synthesis; type: biochemical; settings: read-out: Ki versus NAM; non ATP-coupled NMN synthesis; competitive vs NAM
pKi: −log10 of the molar value.
MEASUREMENT LABEL: pKi

Query string: Bench note: what pKi did NC(=O)C1=CN([C@@H]2O[C@H](COP(=O)(O)OP(=O)(O)OC[C@H]3O[C@@H](n4cnc5c(N)ncnc54)[C@H](O)[C@@H]3O)[C@@H](O)[C@H]2O)C=CC1 show?
Result string: < 4.00

Every entry's value here was drawn from paper PMC2657875.
